# method: qHTS for Inhibitors of the Functional Ribonucleoprotein Complex (vRNP) of Lymphocytic Choriomeningitis Arenaviruses (LCMV): Viability assay - alamar blue signal for LCMV Primary Screen (AID 1347085); also: nearly all actives have a fitted effect of over 80% in size
# condition summary: alamar blue viability counter-screen, LCMV vRNP screen cells; series mostly up to 57.5 µM
Records with an inconclusive call do not appear. The source made the active and inactive calls. Calls follow the shape of the full dose curve; tested in HEK293 reporter line.
Could you please pick one outcome from this set? active, inactive

Request: Dear all, I need the recorded test outcome for `C[C@H]1[C@H](O)O[C@@H]2O[C@@]3(C)CC[C@@H]4[C@H](C)CC[C@@H]1[C@@]24OO3` , thank you.
Response: active

Request: Again, but for `C#CCN(C)CC1=Cc2ccccc2Oc2ccccc21`
Response: inactive

Request: Thanks! And `COc1cc(O)c2c(=O)c3c(O[C@H]4O[C@@H](CO)[C@H](O)[C@@H](O)[C@@H]4O)ccc(O)c3oc2c1` ?
Response: inactive

Request: Please give the result for `Brc1ccc([C@H]2CN3CCSC3=N2)cc1` too.
Response: inactive

Request: Queued: `O=C(O)c1cc(=O)c2ccccc2[nH]1`
Response: inactive

Request: How about this molecule: `CCNC(=O)[C@H]1O[C@@H](n2cnc3c(N)nc(NCCc4ccc(CCC(=O)O)cc4)nc32)[C@H](O)[C@@H]1O`
Response: inactive

Request: Now consider CC1(C)C[C@H]2C3=CCC4[C@@]5(C)CC[C@H](O)C(C)(C)C5CC[C@@]4(C)[C@]3(C)[C@@H](O)[C@@H](O)[C@@]2(CO)[C@@H](O)[C@@H]1O (some centres undefined) .
Response: inactive

Request: // repeat for `CN1CCc2cc(Cl)c(O)cc2[C@@H](c2ccccc2)C1` and report
Response: inactive

Request: Similarly, `COc1ccc2c(=O)c(-c3ccccc3)c(C)oc2c1` ?
Response: inactive

---

# method: Panc-1005 Cancer Cell Toxicity qHTS against the NCATS CANVASS Library (AID 1347349); also: nearly all actives have a fitted effect of over 60% in size
# condition summary: Panc-1005 viability, CellTiter-Glo luminescence, 72 h; series mostly up to 38.3 µM
Records with an inconclusive call do not appear. Calls of active or inactive are those of the source. Calls follow the shape of the dose curve; as a rule, active = well fitted cell-killing curve with a large enough effect; inconclusive = small, poorly fitted or top-dose-only effect; inactive = flat fitted curve, though single readings scatter.
The reply should be one of these categories: active, inactive

Request: # fetch the recorded call for CC[N@@+]1([O-])C[C@]2(C)CC[C@@H](O)[C@@]34C5C[C@H]6CC[C@@]5(C(C[C@H]23)C41)[C@H](O)[C@@]6(O)CO (some centres undefined) here
Response: inactive

Request: Now the compound CN1C(=O)[C@]23CC4C(C)(C)[C@@]5(C[C@@]41CN2CC[C@@]3(C)O)C(=O)Nc1c5ccc2c1OC=CC(C)(C)O2 (some centres undefined)
Response: inactive

Request: Note, next up: `COc1ccc2c(c1)[nH]c1c(C)nccc12`
Response: active

Request: How about `CC1=CC(=O)C2=C(C)C[C@H](O)[C@@H]3[C@H](OC(=O)[C@@H]3C)[C@@H]12` ?
Response: inactive

---

# System: W2
# method: qHTS profiling for inhibitors of Plasmodium falciparum proliferation (AID 504749); also: nearly all actives have a fitted effect of over 60% in size
# condition summary: P. falciparum in erythrocytes, SYBR Green DNA, 72 h; series mostly up to 28.7 µM
Inconclusive results are not listed. Activity calls are given as the source filed them. Calls come from the whole dose curve; as a rule, active = well fitted inhibition curve with a large enough effect; inconclusive = small, poorly fitted or top-dose-only effect; inactive = flat fitted curve, though single readings scatter.
Lab note: assign the record to one of active, inactive

Request: // param item: `Cc1cccc([C@H](C)c2cnc[nH]2)c1C` ; yields the recorded call
Response: active

Request: What about this compound? `CCCCCCCCCC[N+](C)(C)CCCCCCCCCC`
Response: active

Request: Same question for `O=C(O)c1ccccc1-c1c2cc(Br)c(=O)cc-2oc2[c]([Hg])c(O)c(Br)cc12` please.
Response: inactive

Request: Next compound up: CC(C)[C@@]1(NC(=O)[C@H]2CC3c4cccc5[nH]cc(c45)C[C@H]3N(C)C2)O[C@@]2(O)C3CCCN3C(=O)[C@@H](Cc3ccccc3)N2C1=O (some centres undefined)
Response: active

---

# target or system: Nucleoprotein (Lymphocytic choriomeningitis virus (strain Armstrong)) (UniProt P09992)
# Sequence (P09992 whole entry, looked up): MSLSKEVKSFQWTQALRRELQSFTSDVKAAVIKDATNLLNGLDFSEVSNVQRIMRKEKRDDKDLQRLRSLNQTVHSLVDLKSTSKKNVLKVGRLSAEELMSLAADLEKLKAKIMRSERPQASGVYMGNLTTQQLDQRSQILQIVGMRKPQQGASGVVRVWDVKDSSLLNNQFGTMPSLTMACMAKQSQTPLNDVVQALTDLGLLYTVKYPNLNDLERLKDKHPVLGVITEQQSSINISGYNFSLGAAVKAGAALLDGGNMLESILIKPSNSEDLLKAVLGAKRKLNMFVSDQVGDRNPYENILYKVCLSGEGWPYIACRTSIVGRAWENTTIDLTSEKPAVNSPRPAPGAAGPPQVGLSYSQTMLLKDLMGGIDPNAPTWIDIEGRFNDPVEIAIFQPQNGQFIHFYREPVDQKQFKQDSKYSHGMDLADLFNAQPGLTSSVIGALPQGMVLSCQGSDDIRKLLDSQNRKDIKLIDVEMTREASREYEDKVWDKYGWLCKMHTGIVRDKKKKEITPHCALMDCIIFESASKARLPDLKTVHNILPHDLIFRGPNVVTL
# method: qHTS for Inhibitors of the Functional Ribonucleoprotein Complex (vRNP) of Lymphocytic Choriomeningitis Arenaviruses (LCMV): LCMV Primary Screen - GLuc reporter signal (AID 1347086); also: nearly all actives have a fitted effect of over 70% in size
# condition summary: LCMV minigenome vRNP cell assay, Gaussia luciferase reporter; series mostly up to 57.5 µM
Records with an inconclusive call do not appear. Activity calls are given as the source filed them. The call rests on the fitted dose curve.
Classes to choose from: active, inactive

Request: Identify the outcome logged in this assay for the molecule shown: `Cc1ccc([N+](=O)[O-])cc1S(=O)(=O)N(C)C`
Response: inactive

Request: What do you have for `COC(=O)C1=CO[C@@H](O)[C@@H]2C(CO)=CC[C@@H]12` ?
Response: inactive

Request: Repeat with CC1=CC2OC3CC4OC(=O)C=CC=CC(=O)OCCC(C)C(O)C(=O)OCC2(CC1)C4(C)C31CO1 (stereo unspecified)
Response: inactive

Request: Repeat with `CC(C)(CO)[C@@H](O)C(=O)NCCC(=O)O`
Response: inactive

Request: Try `CC[C@@]1(O)C(=O)OCc2c1cc1n(c2=O)Cc2cc3cc(O)ccc3nc2-1` next.
Response: active

Request: # repeat for CC(O)C(C)O (stereo unspecified)
Response: inactive

Request: Item: `Nc1nc(SCc2ccc([N+](=O)[O-])cc2)c2ncn([C@@H]3O[C@H](CO)[C@@H](O)[C@H]3O)c2n1`
Response: inactive

Request: How about this molecule: C=C1C2[C@H](OC(C)=O)[C@@H]3CC(=O)[C@]4(C)OC[C@@]3(C)[C@@]4(O)[C@@H](OC(C)=O)[C@H](OC(C)=O)[C@@]2(COC(=O)c2ccccc2)[C@@H](OC(C)=O)C[C@@H]1O (stereo partly specified)
Response: inactive

Request: Could you do the same for `COc1cc2ccc(=O)oc2c(O)c1O` , please?
Response: inactive

Request: CC(=O)/C=C/C1C(C)=CCCC1(C)C (stereo unspecified) , same question.
Response: inactive

Request: Now the molecule `CC1(C)CCC[C@]2(C)[C@H]3Cc4cc(O)ccc4O[C@]3(C)CC[C@@H]12`
Response: inactive

Request: And then `NC(N)=Nc1nc(CSCCC(N)=NS(N)(=O)=O)cs1` , what is it?
Response: inactive

Request: Check `C=C1[C@H]2CC[C@@H]3[C@H]2C(C)(C)CCC[C@]13C` too.
Response: inactive

Request: Now give it for `N#Cc1c(N(CC(=O)O)CC(=O)O)sc(C(=O)O)c1CC(=O)O` too.
Response: inactive

Request: Could you do the same for `FC(F)(F)c1ccc(C=Cc2nc(COc3ccc(CCCCn4ccnn4)cc3)co2)cc1` , please?
Response: active

Request: Same for `Fc1ccc(CNc2ncnc3ccc(F)cc23)cc1`
Response: active

Request: Param item: `Cc1ccc(-c2ccccc2)cc1`
Response: inactive

Request: Same question for `CC[C@H](C)[C@@H]1NC(=O)CNC(=O)c2csc(n2)[C@H](C(C)(C)O)OC(=O)C(C)(C)[C@H](CCCC(C)(Cl)Cl)OC(=O)c2csc1n2` please.
Response: inactive

Request: Try `O=C(O)C1=CCCNC1` next.
Response: inactive

Request: And what about the molecule `COc1cc(-c2oc3cc(O)cc(O)c3c(=O)c2O[C@@H]2O[C@H](CO)[C@@H](O)[C@H](O)[C@H]2O)cc(OC)c1O` ?
Response: inactive

Request: Param item: `O=C1NC(=O)/C(=C/c2ccc3c(c2)OC(F)(F)O3)S1`
Response: inactive

---

# method: qHTS for Activators of p53 Stress Response Pathway screened against the NCATS CANVASS Library (AID 1347388)
# condition summary: p53RE-bla HCT-116, beta-lactamase reporter, 16 h; series mostly up to 46.1 µM
Records with an inconclusive call do not appear. The source made the active and inactive calls. The call rests on the fitted dose curve; in most records, active means well fitted activation curve with a large enough effect; inconclusive means small, poorly fitted or top-dose-only effect; inactive means flat fitted curve, though single readings scatter.
assay metric: outcome

- molecule: "CNCCc1ccc(O)cc1"
  result: "inactive"
- molecule: "CC(=O)N[C@H]1CCN2CCC[C@H]12"
  result: "inactive"
- molecule: "CN1C(=O)[C@]23CC4C(C)(C)[C@@]5(C[C@@]41CN2CC[C@@]3(C)O)C(=O)Nc1c5ccc2c1OC=CC(C)(C)O2 (stereo partly drawn)"
  result: "inactive"

---

# method: qHTS for Inhibitors of the Functional Ribonucleoprotein Complex (vRNP) of Lassa (LASV) Arenavirus: Viability assay - alamar blue signal for LASV Primary Screen (AID 1347083); also: nearly all actives have a fitted effect of over 80% in size; also: potency is read from the fitted curve at half-maximal effect
# condition summary: cell viability, alamar blue fluorescence (LASV minigenome counter-screen); series mostly up to 57.5 µM
Results filed as inconclusive are left out. Calls of active or inactive are those of the source. The call rests on the fitted dose curve; tested in HEK293 reporter line.
assay metric: Potency

- compound: "COc1cc2cc(Oc3ccc4ccc(=O)oc4c3)c(=O)oc2cc1OC(C)=O"
  result: "inactive"
- compound: "C[C@@H]1[C@H](O)[C@@H](C)C=CC=CC=CC=CC=CC=CC=C[C@H](O[C@@H]2O[C@H](C)[C@H](O)[C@H](N)[C@@H]2O)C[C@@H]2O[C@](O)(C[C@@H](O)C[C@@H](O)[C@H](O)CC[C@@H](O)C[C@@H](O)CC(=O)O[C@H]1C)C[C@H](O)[C@@H]2C(=O)O"
  result: "10.9 µM (active)"
- compound: "CC(C)CNc1ccnc(NCc2csc(-c3ccccc3)n2)n1"
  result: "13.7 µM (active)"
- compound: "CC1C(=O)N(C)C(=O)c2nc[nH]c21 (centres undefined)"
  result: "inactive"
- compound: "N.N.N.N.N.N.N.N.N.N.N.N.N.N.O.O.[Ru+4].[Ru+5].[Ru+5]"
  result: "inactive"
- compound: "ON=Cc1ccnc2ccccc12"
  result: "inactive"

Request: Consider the compound shown here: `NC(N)=NC(N)=Nc1ccccc1` What is its recorded Potency?
Response: inactive

Request: Moving on to the next compound: CO[C@H]1[C@@H](OC)CC(OC2OC(CO)C(O)C(O)C2O)/C(=C\C#N)[C@@H]1O (some centres undefined)
Response: inactive

Request: Again, but for `Cc1nc(Nc2n[nH]c3c2CN(C(=O)N[C@H](CN(C)C)c2ccccc2)C3(C)C)c2sccc2n1`
Response: 0.193 µM (active)
